System: DB (B-Cell Non-Hodgkin's Lymphoma)
ASSAY_METHOD_TEXT: combination Emax (second highest fraction inhibited in the dose matrix, 72 h); higher = more inhibition; extreme values may be limits of the assay
READOUT_LABEL: combination Emax
Lab note: jot down the number only; don't add units.

// below: answered compounds
C[C@@H]1COCCN1c1cc(C2([S@](C)(=N)=O)CC2)nc(-c2ccnc3[nH]ccc23)n1 [AZD6738] + O=C(c1cc(Cc2n[nH]c(=O)c3ccccc23)ccc1F)N1CCN(C(=O)C2CC2)CC1 [Olaparib] (first compound max 10 µM, 7x7, partner max 10 µM): 0.736
Cc1cc2ncnn2cc1Nc1ncc2c(n1)n(C1CCOCC1)c(=O)n2C [AZD7648] + COc1cc([C@@H]2c3cc4c(cc3[C@@H](O[C@@H]3O[C@@H]5CO[C@@H](C)O[C@H]5[C@H](O)[C@H]3O)[C@H]3COC(=O)[C@H]23)OCO4)cc(OC)c1O [Etoposide] (first compound max 10 µM, 7x7, partner max 10 µM): 0.907

Let us move to another entry and its combination Emax.
Bench note: what combination Emax did CC1(C)CCC(CN2CCN(c3ccc(C(=O)NS(=O)(=O)c4ccc(NCC5CCOCC5)c([N+](=O)[O-])c4)c(Oc4cnc5[nH]ccc5c4)c3)CC2)=C(c2ccc(Cl)cc2)C1 [Venetoclax] + COc1cc(Nc2ncc3c(n2)-c2ccc(Cl)cc2C(c2c(F)cccc2OC)=NC3)ccc1C(=O)O [Alisertib] (first compound max 1 µM, 7x7, partner max 10 µM) show? 0.949

All figures here come from the supplement of paper PMC11061612.
